- target or system: recombinant DPP-4 enzyme D4943 (Homo sapiens)
- Construct: purchased Sigma-Aldrich D4943
- Sequence (P27487 whole entry): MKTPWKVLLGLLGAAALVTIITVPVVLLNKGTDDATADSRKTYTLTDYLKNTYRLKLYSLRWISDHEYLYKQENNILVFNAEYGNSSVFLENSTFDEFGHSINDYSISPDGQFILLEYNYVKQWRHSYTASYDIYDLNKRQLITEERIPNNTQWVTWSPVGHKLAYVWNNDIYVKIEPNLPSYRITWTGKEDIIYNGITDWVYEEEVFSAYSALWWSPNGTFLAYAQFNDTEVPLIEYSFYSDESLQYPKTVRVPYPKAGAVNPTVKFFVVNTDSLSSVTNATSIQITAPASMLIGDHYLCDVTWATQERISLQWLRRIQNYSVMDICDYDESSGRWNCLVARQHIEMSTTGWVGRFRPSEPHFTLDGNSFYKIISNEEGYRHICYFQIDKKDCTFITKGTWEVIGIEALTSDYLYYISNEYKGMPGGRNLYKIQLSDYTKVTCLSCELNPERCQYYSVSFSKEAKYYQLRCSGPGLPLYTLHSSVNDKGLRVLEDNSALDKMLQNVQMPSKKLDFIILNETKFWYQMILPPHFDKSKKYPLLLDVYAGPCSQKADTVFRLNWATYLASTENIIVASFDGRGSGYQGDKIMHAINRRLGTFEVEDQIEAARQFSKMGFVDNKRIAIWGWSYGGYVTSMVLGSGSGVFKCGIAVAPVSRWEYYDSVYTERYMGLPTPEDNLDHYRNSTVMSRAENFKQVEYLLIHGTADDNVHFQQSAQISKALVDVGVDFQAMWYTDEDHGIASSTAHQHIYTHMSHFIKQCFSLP
- protocol text: DPP-4 enzyme inhibitory assay, chromogenic substrate Gly-Pro-pNA, absorbance at 405 nm
- Format: biochemical
- applied conditions: 37 °C for 30 min, pH = 7.6, dilution range 10^−4 to 10^−11 M
experimental endpoint: IC50 (nM)

(A) N[C@@H](CC(=O)N1C2CCC(C2)[C@H]1c1noc(-c2ccccc2)n1)Cc1cc(F)c(F)cc1F (stereo partly shown)
(B) N[C@@H](CC(=O)N1C2CCC(C2)[C@H]1c1nc(-c2ccccc2)no1)Cc1cc(F)c(F)cc1F (stereo partly shown)
Challenge: Which gives the smaller IC50 number: A or B ? Choose, then provide that item's label.
Response given: B
(B: 4.3 nM, A: 21.6 nM)
